B1: PhoQ; a variant is named by its letters at X, in order, P23837 (parent)
chain: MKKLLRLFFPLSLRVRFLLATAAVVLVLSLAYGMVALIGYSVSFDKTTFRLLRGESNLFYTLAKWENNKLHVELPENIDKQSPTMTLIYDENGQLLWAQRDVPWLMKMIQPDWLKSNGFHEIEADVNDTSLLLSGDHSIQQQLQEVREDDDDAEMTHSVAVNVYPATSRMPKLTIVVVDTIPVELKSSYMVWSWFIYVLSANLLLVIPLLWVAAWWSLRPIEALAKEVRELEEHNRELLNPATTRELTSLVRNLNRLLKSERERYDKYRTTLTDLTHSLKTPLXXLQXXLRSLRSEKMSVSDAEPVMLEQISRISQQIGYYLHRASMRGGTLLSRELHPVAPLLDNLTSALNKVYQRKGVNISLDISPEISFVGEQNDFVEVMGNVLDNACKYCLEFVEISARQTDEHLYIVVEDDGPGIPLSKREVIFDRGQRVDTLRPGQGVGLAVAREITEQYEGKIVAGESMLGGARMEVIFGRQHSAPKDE

Variants of: B1
Test: enrichment ratio after two sorts for PhoP signalling (ratio (wild type AVST 3.29)); higher = more functional
Conditions: with PhoP (E. coli)
Over roughly 140,000 sequences, “enrichment ratio after two sorts for PhoP signalling” has its median near 0; the highest 2% begin near 11. What follows is part of a selection rich in the highest values, with near analogues and random picks from the rest.
Recorded enrichment ratio values for a group of variants are listed next.

{"SEQUENCE_VARIANT": "PFDF", "enrichment ratio": "≤ 0.25"}
{"SEQUENCE_VARIANT": "QVLK", "enrichment ratio": "≤ 0.25"}
{"SEQUENCE_VARIANT": "MGWM", "enrichment ratio": 21}
{"SEQUENCE_VARIANT": "MVMH", "enrichment ratio": "≤ 0.25"}
{"SEQUENCE_VARIANT": "YVEW", "enrichment ratio": "≤ 0.25"}
{"SEQUENCE_VARIANT": "SIGR", "enrichment ratio": 1.85}
{"SEQUENCE_VARIANT": "EGVS", "enrichment ratio": "≤ 0.25"}
{"SEQUENCE_VARIANT": "EIPP", "enrichment ratio": "≤ 0.25"}
{"SEQUENCE_VARIANT": "HSNG", "enrichment ratio": "≤ 0.25"}
{"SEQUENCE_VARIANT": "HDYF", "enrichment ratio": "≤ 0.25"}
{"SEQUENCE_VARIANT": "NESI", "enrichment ratio": "≤ 0.25"}
{"SEQUENCE_VARIANT": "MLYM", "enrichment ratio": 8.36}
{"SEQUENCE_VARIANT": "MGGM", "enrichment ratio": 9.49}
{"SEQUENCE_VARIANT": "KHFI", "enrichment ratio": "≤ 0.25"}
{"SEQUENCE_VARIANT": "KCYN", "enrichment ratio": "≤ 0.25"}
{"SEQUENCE_VARIANT": "IGLA", "enrichment ratio": "≤ 0.25"}
{"SEQUENCE_VARIANT": "MTSW", "enrichment ratio": "≤ 0.25"}
{"SEQUENCE_VARIANT": "FQNC", "enrichment ratio": "≤ 0.25"}
{"SEQUENCE_VARIANT": "PLKT", "enrichment ratio": "≤ 0.25"}
{"SEQUENCE_VARIANT": "TNKN", "enrichment ratio": "≤ 0.25"}
{"SEQUENCE_VARIANT": "LTKR", "enrichment ratio": "≤ 0.25"}
{"SEQUENCE_VARIANT": "EQYF", "enrichment ratio": "≤ 0.25"}
